// provenance: ChEMBL document CHEMBL1130562

studyTarget: Proto-oncogene tyrosine-protein kinase Src (Homo sapiens, UniProt P12931)
Sequence (P12931 2-536 limits assumed): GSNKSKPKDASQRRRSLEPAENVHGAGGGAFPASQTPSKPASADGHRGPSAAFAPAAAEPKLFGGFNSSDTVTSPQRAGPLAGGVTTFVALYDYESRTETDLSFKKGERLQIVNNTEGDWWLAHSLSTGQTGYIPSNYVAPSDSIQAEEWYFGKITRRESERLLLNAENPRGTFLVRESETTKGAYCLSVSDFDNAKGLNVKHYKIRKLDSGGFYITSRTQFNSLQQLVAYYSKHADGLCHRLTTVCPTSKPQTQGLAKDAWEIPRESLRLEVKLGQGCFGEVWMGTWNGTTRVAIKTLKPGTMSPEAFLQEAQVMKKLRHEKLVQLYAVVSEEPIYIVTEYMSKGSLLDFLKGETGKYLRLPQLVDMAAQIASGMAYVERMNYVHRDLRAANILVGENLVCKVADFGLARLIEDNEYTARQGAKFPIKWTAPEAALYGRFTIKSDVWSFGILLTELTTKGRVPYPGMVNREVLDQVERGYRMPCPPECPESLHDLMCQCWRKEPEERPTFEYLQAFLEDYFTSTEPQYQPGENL
pIC50: −log10 of the molar value.
Entry flag: yes if pIC50 reaches 5; no if it does not.

{"mol": "O=C(Nc1cccc(Nc2nccc(-c3cccnc3)n2)c1)c1ccncc1", "labelClass": "no"}
{"mol": "c1ccc(Nc2nccc(-c3cccnc3)n2)cc1", "labelClass": "no"}

Request: For this molecule, is measured pIC50 5 or higher? Nc1cccc(Nc2nccc(-c3cccnc3)n2)c1
Response: no

Request: Assess whether reported pIC50 for c1cncc(-c2ccnc(Nc3cccc(-n4ccnc4)c3)n2)c1 sits at 5 or higher.
Response: yes

Request: Identify whether the reported pIC50 of the following molecule is 5 or greater: c1cc(Nc2nccc(-c3cccnc3)n2)cc(OCCn2ccnc2)c1
Response: yes

Request: # bool: pIC50 of Clc1cccc(Nc2nccc(-c3cccnc3)n2)c1 >= 5
Response: no

Request: In plain terms: is recorded pIC50 at least 5 for Cc1ccc(C(=O)Nc2cccc(Nc3nccc(-c4cccnc4)n3)c2)cc1 ?
Response: no

Request: Check if pIC50 >= 5 (inclusive). Item: FC(F)C(F)(F)Oc1cccc(Nc2nccc(-c3c[nH]c4ccccc34)n2)c1
Response: yes

Request: Tell me whether pIC50 is at least 5 here: CCCCCC(=O)Nc1cccc(Nc2nccc(-c3cccnc3)n2)c1
Response: yes

Request: Kindly determine if pIC50 recorded for O=C(Nc1cccc(Nc2nccc(-c3cccnc3)n2)c1)C1CCCCC1 is above or exactly 5.
Response: no
